Biological target: T1, cell-bound CD73 (human, UniProt P21589 27-549)
T1 sequence (looked up): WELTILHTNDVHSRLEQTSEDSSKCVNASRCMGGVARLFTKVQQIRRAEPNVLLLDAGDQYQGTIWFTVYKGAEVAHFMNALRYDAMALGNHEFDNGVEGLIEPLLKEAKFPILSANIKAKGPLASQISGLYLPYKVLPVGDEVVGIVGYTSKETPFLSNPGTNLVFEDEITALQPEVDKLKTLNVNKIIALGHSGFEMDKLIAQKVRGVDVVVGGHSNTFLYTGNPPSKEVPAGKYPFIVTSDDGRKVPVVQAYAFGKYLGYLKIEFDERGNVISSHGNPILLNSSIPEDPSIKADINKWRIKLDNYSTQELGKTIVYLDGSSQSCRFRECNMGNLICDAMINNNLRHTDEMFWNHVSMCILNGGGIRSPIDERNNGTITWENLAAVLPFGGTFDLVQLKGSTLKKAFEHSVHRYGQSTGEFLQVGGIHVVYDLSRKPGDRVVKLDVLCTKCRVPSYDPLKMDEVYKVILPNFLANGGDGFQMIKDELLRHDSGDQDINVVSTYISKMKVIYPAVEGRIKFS
Assay: cell-based or functional assay
experimental endpoint: IFNγ release [fold change over control], Donor F, 1 nM antibody (fold)

| binder | unit of measurement | observed value |
| --- | --- | --- |
| C6 (antibody, human IgG1, kappa, L234A L235A, V domains shown, Humanized monoclonal antibody; also called anti-CD73 antibody C6) VH: QVQLVQSGAEVKKPGDSVKVSCKASGYTFTTYWMHWVRQAPGQGLEWMGAIYPGNSDTTYNQKFKGKVTMTRDTSTSTVYMKLSSLRSEDTAVYYCARLLDYAMDYWGQGTLVTVSS VL: DIQMTQSPSSLSASVGDRVTITCRASQDIRNYLNWHQQKPGKAPKLLIWYTSRLHSGVPSRFSGSGSGTDYTLTISSLQPEDFATYFCQQGNTLPWTFGQGTKLEIKR | fold | 10.3 |
| C1 (antibody, human IgG1, kappa, L234A L235A, V domains shown, Humanized monoclonal antibody; also called anti-CD73 antibody C1) VH: QVQLVQSGAEVKKPGDSVKVSCKASGYTFTTYWMHWVRQAPGQGLEWMGAIYPGFSDTTYSQKFKGKVTMTRDTSTSTVYMKLSSLRSEDTAVYYCARLLDYAMDYWGQGTLVTVSS VL: DIQMTQSPSSLSASVGDRVTITCRASQDIRSYLNWHQQKPGKAPKLLIWYTSRLHSGVPSRFSGSGSGTDYTLTISSLEPEDFATYFCQQGETLPWTFGQGTKLEIKR | fold | 6.7 |
| B2 (antibody, human IgG1, kappa, L234A L235A, V domains shown, Humanized monoclonal antibody; also called anti-CD73 antibody B2) VH: EVQLVESGGGLVQPGGSLRLSCAASGLTFSSYVMSWVRQAPGKGLEWVSTISSGGVSTYYPDTVKGRFTISRDNSKNTLYLQMNSLRAEDTAVYYCAKRETARATGFAYWGQGTLVTVSA VL: DIQMTQSPSSLSASVGDRVTITCKASQSVSDDVTWYQQKPGKAPKLLIYYASNRYTGVPSRFSGSGSGTDFTFTISSVQPEDIATYYCQQDYSSPWTFGGGTKLEIKR | fold | 3.1 |

The reported numbers originate from patent US20190352420A1.
